IC50 for assorted compounds
target: human galectin-3C (Gal-3C, C-terminal CRD of galectin-3) (Homo sapiens); construct: only the C-terminal domain was used (Gal-3C); 6xHis tag with TEV protease site (N, cleaved yes); made in house; host or cells: BL21 Escherichia coli (pET-15b); test: Competitive fluorescence polarization assay, Gal-3C; assay type: binding; conditions: four-parameter logistic model; mean ± SD; read-out: IC50 Gal-3C
Sequence (P17931 118-248 limits assumed): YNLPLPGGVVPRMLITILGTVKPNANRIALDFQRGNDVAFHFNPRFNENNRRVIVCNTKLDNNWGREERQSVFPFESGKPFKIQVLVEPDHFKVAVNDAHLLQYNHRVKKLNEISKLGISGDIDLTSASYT
property: IC50

smiles.string | tested.target | measurement
CC(=O)N(c1cccc(F)c1)[C@@H]1O[C@H](CO)[C@@H](O[C@@H]2O[C@H](CO)[C@H](O)[C@H](O)[C@H]2O)[C@H](O)[C@H]1O | human galectin-3C (Gal-3C, C-terminal CRD of galectin-3) (Homo sapiens) | 300 µM
CC(=O)N(c1cccc(CO)c1)[C@@H]1O[C@H](CO)[C@@H](O[C@@H]2O[C@H](CO)[C@H](O)[C@H](O)[C@H]2O)[C@H](O)[C@H]1O | human galectin-3C (Gal-3C, C-terminal CRD of galectin-3) (Homo sapiens) | 270 µM
O=C(O)c1cccc(N(C(=O)Cc2ccccc2)[C@@H]2O[C@H](CO)[C@@H](O[C@@H]3O[C@H](CO)[C@H](O)[C@H](O)[C@H]3O)[C@H](O)[C@H]2O)c1 | human galectin-3C (Gal-3C, C-terminal CRD of galectin-3) (Homo sapiens) | 130 µM
CC(=O)N(c1cc(C(=O)O)cc2[nH]ccc12)[C@@H]1O[C@H](CO)[C@@H](O[C@@H]2O[C@H](CO)[C@H](O)[C@H](O)[C@H]2O)[C@H](O)[C@H]1O | human galectin-3C (Gal-3C, C-terminal CRD of galectin-3) (Homo sapiens) | 11 µM
CC(=O)N(c1ccc(Cl)c(Cl)c1)[C@@H]1O[C@H](CO)[C@@H](O[C@@H]2O[C@H](CO)[C@H](O)[C@H](O)[C@H]2O)[C@H](O)[C@H]1O | human galectin-3C (Gal-3C, C-terminal CRD of galectin-3) (Homo sapiens) | 350 µM
COc1cc(N(C(C)=O)[C@@H]2O[C@H](CO)[C@@H](O[C@@H]3O[C@H](CO)[C@H](O)[C@H](O)[C@H]3O)[C@H](O)[C@H]2O)cc(OC)c1OC | human galectin-3C (Gal-3C, C-terminal CRD of galectin-3) (Homo sapiens) | 240 µM
CC(=O)N(c1ccccc1)[C@@H]1O[C@H](CO)[C@@H](O[C@@H]2O[C@H](CO)[C@H](O)[C@H](O)[C@H]2O)[C@H](O)[C@H]1O | human galectin-3C (Gal-3C, C-terminal CRD of galectin-3) (Homo sapiens) | 290 µM
CC(=O)N(c1ccc(Cl)cc1)[C@@H]1O[C@H](CO)[C@@H](O[C@@H]2O[C@H](CO)[C@H](O)[C@H](O)[C@H]2O)[C@H](O)[C@H]1O | human galectin-3C (Gal-3C, C-terminal CRD of galectin-3) (Homo sapiens) | 360 µM
CC(=O)N(c1cccc(C(=O)O)c1)[C@@H]1O[C@H](CO)[C@@H](O[C@@H]2O[C@H](CO)[C@H](O)[C@H](O)[C@H]2O)[C@H](O)[C@H]1O | human galectin-3C (Gal-3C, C-terminal CRD of galectin-3) (Homo sapiens) | 130 µM
CC(=O)N(c1ccc(F)c(F)c1)[C@@H]1O[C@H](CO)[C@@H](O[C@@H]2O[C@H](CO)[C@H](O)[C@H](O)[C@H]2O)[C@H](O)[C@H]1O | human galectin-3C (Gal-3C, C-terminal CRD of galectin-3) (Homo sapiens) | 280 µM
COc1ccc(N(C(C)=O)[C@@H]2O[C@H](CO)[C@@H](O[C@@H]3O[C@H](CO)[C@H](O)[C@H](O)[C@H]3O)[C@H](O)[C@H]2O)cc1OC | human galectin-3C (Gal-3C, C-terminal CRD of galectin-3) (Homo sapiens) | 280 µM
CC(=O)N(c1cccc(C(F)(F)F)c1)[C@@H]1O[C@H](CO)[C@@H](O[C@@H]2O[C@H](CO)[C@H](O)[C@H](O)[C@H]2O)[C@H](O)[C@H]1O | human galectin-3C (Gal-3C, C-terminal CRD of galectin-3) (Homo sapiens) | 490 µM
CC(=O)N(c1cc(O)cc(C(=O)O)c1)[C@@H]1O[C@H](CO)[C@@H](O[C@@H]2O[C@H](CO)[C@H](O)[C@H](O)[C@H]2O)[C@H](O)[C@H]1O | human galectin-3C (Gal-3C, C-terminal CRD of galectin-3) (Homo sapiens) | 32 µM
